These measurements were taken from paper PMC10243363.

# SYSTEM: DOR (Mus musculus)
# ASSAY: [35S]-GTPγS binding assay, mDOR-CHO membrane
# SETTINGS: read-out: DOR EC50; mean ± SEM
pEC50: −log10 of the molar value.
Measured pEC50, listed per entry for reference.

>  <RECORD SMILES>
CN(C(=O)/C=C/c1ccoc1)[C@H]1CC[C@@]2(O)[C@H]3Cc4cccc5c4[C@@]2(CCN3CC2CC2)[C@H]1O5.Cl

>  <pEC50>
6.62

$$$$
>  <RECORD SMILES>
Cl.O=C(/C=C/c1ccoc1)N[C@H]1CC[C@@]2(O)[C@H]3Cc4cccc5c4[C@@]2(CCN3CC2CC2)[C@H]1O5

>  <pEC50>
6.15

$$$$
>  <RECORD SMILES>
Cl.O=C(/C=C/c1ccoc1)N[C@@H]1CC[C@@]2(O)[C@H]3Cc4ccc(O)c5c4[C@@]2(CCN3CC2CC2)[C@H]1O5

>  <pEC50>
7.61

$$$$
>  <RECORD SMILES>
CN(C(=O)/C=C/c1ccoc1)[C@@H]1CC[C@@]2(O)[C@H]3Cc4cccc5c4[C@@]2(CCN3CC2CC2)[C@H]1O5.Cl

>  <pEC50>
5.68

$$$$
>  <RECORD SMILES>
Cl.O=C(/C=C/c1ccoc1)N[C@@H]1CC[C@@]2(O)[C@H]3Cc4cccc5c4[C@@]2(CCN3CC2CC2)[C@H]1O5

>  <pEC50>
5.82

$$$$
>  <RECORD SMILES>
Cl.O=C(/C=C/c1ccoc1)N[C@H]1CC[C@@]2(O)[C@H]3Cc4ccc(O)c5c4[C@@]2(CCN3CC2CC2)[C@H]1O5

>  <pEC50>
7.08

$$$$

---

# SYSTEM: KOR (Mus musculus, UniProt P33534)
# ASSAY: [35S]-GTPγS binding assay, mKOR-CHO membrane
# Format: biochemical
# SETTINGS: %Emax = 100 defined using 5 μM U50,488H; mean ± SEM

>  <RECORD SMILES>
Cl.O=C(/C=C/c1ccoc1)N[C@@H]1CC[C@@]2(O)[C@H]3Cc4ccc(O)c5c4[C@@]2(CCN3CC2CC2)[C@H]1O5

>  <KOR %Emax>
95.2 ± 4.9%

$$$$
>  <RECORD SMILES>
Cl.O=C(/C=C/c1ccoc1)N[C@@H]1CC[C@@]2(O)[C@H]3Cc4cccc5c4[C@@]2(CCN3CC2CC2)[C@H]1O5

>  <KOR %Emax>
97.9 ± 2.4%

$$$$
>  <RECORD SMILES>
CN(C(=O)/C=C/c1ccoc1)[C@@H]1CC[C@@]2(O)[C@H]3Cc4cccc5c4[C@@]2(CCN3CC2CC2)[C@H]1O5.Cl

>  <KOR %Emax>
94.6 ± 2.9%

$$$$

---

# SYSTEM: DOR (Mus musculus, UniProt P32300)
# ASSAY: [35S]-GTPγS binding assay, mDOR-CHO membrane
# Assay type: biochemical
# SETTINGS: %Emax = 100 defined using 5 μM SNC80; mean ± SEM
MEASURED PARAMETER: DOR %Emax (%)

>  <COMPOUND>
Cl.O=C(/C=C/c1ccoc1)N[C@H]1CC[C@@]2(O)[C@H]3Cc4ccc(O)c5c4[C@@]2(CCN3CC2CC2)[C@H]1O5 [Compound 9]

>  <RESULT VALUE>
108

$$$$
>  <COMPOUND>
Cl.O=C(/C=C/c1ccoc1)N[C@@H]1CC[C@@]2(O)[C@H]3Cc4cccc5c4[C@@]2(CCN3CC2CC2)[C@H]1O5 [Compound 14]

>  <RESULT VALUE>
107

$$$$
>  <COMPOUND>
CN(C(=O)/C=C/c1ccoc1)[C@@H]1CC[C@@]2(O)[C@H]3Cc4cccc5c4[C@@]2(CCN3CC2CC2)[C@H]1O5.Cl [Compound 16]

>  <RESULT VALUE>
107

$$$$

---

# SYSTEM: KOR (Mus musculus)
# ASSAY: Competitive radioligand binding assay, KOR
# SETTINGS: ratio of Ki MOR/KOR
MEASURED PARAMETER: Selectivity M/K

>  <MOLECULE>
Cl.O=C(/C=C/c1ccoc1)N[C@@H]1CC[C@@]2(O)[C@H]3Cc4cccc5c4[C@@]2(CCN3CC2CC2)[C@H]1O5 [Compound 14]

>  <MEASURED PARAMETER>
Selectivity M/K

>  <RESULT VALUE>
26

$$$$
>  <MOLECULE>
Cl.O=C(/C=C/c1ccoc1)N[C@@H]1CC[C@@]2(O)[C@H]3Cc4ccc(O)c5c4[C@@]2(CCN3CC2CC2)[C@H]1O5 [Compound 10]

>  <MEASURED PARAMETER>
Selectivity M/K

>  <RESULT VALUE>
1.8

$$$$
>  <MOLECULE>
Cl.O=C(/C=C/c1ccoc1)N[C@H]1CC[C@@]2(O)[C@H]3Cc4cccc5c4[C@@]2(CCN3CC2CC2)[C@H]1O5 [Compound 13]

>  <MEASURED PARAMETER>
Selectivity M/K

>  <RESULT VALUE>
1.9

$$$$
>  <MOLECULE>
Cl.O=C(/C=C/c1ccoc1)N[C@H]1CC[C@@]2(O)[C@H]3Cc4ccc(O)c5c4[C@@]2(CCN3CC2CC2)[C@H]1O5 [Compound 9]

>  <MEASURED PARAMETER>
Selectivity M/K

>  <RESULT VALUE>
0.6

$$$$
>  <MOLECULE>
CN(C(=O)/C=C/c1ccoc1)[C@@H]1CC[C@@]2(O)[C@H]3Cc4cccc5c4[C@@]2(CCN3CC2CC2)[C@H]1O5.Cl [Compound 16]

>  <MEASURED PARAMETER>
Selectivity M/K

>  <RESULT VALUE>
42

$$$$
>  <MOLECULE>
CN(C(=O)/C=C/c1ccoc1)[C@H]1CC[C@@]2(O)[C@H]3Cc4cccc5c4[C@@]2(CCN3CC2CC2)[C@H]1O5.Cl [Compound 15]

>  <MEASURED PARAMETER>
Selectivity M/K

>  <RESULT VALUE>
21

$$$$

---

# SYSTEM: MOR (Mus musculus, UniProt P42866)
# ASSAY: [35S]-GTPγS binding assay, mMOR-CHO membrane
# SETTINGS: read-out: MOR EC50; mean ± SEM
pEC50: −log10 of the molar value.

>  <RECORD SMILES>
CN(C(=O)/C=C/c1ccoc1)[C@@H]1CC[C@@]2(O)[C@H]3Cc4cccc5c4[C@@]2(CCN3CC2CC2)[C@H]1O5.Cl

>  <pEC50>
5.74

$$$$
>  <RECORD SMILES>
Cl.O=C(/C=C/c1ccoc1)N[C@H]1CC[C@@]2(O)[C@H]3Cc4cccc5c4[C@@]2(CCN3CC2CC2)[C@H]1O5

>  <pEC50>
6.55

$$$$
>  <RECORD SMILES>
CN(C(=O)/C=C/c1ccoc1)[C@H]1CC[C@@]2(O)[C@H]3Cc4cccc5c4[C@@]2(CCN3CC2CC2)[C@H]1O5.Cl

>  <pEC50>
6.88

$$$$
>  <RECORD SMILES>
Cl.O=C(/C=C/c1ccoc1)N[C@H]1CC[C@@]2(O)[C@H]3Cc4ccc(O)c5c4[C@@]2(CCN3CC2CC2)[C@H]1O5

>  <pEC50>
8.08

$$$$
>  <RECORD SMILES>
Cl.O=C(/C=C/c1ccoc1)N[C@@H]1CC[C@@]2(O)[C@H]3Cc4cccc5c4[C@@]2(CCN3CC2CC2)[C@H]1O5

>  <pEC50>
6.78

$$$$
>  <RECORD SMILES>
Cl.O=C(/C=C/c1ccoc1)N[C@@H]1CC[C@@]2(O)[C@H]3Cc4ccc(O)c5c4[C@@]2(CCN3CC2CC2)[C@H]1O5

>  <pEC50>
8.87

$$$$

---

# SYSTEM: UniProt:P33534
# ASSAY: Competitive radioligand binding assay, KOR
# SETTINGS: ratio of Ki DOR/KOR
MEASURED PARAMETER: Selectivity D/K

>  <RECORD SMILES>
Cl.O=C(/C=C/c1ccoc1)N[C@@H]1CC[C@@]2(O)[C@H]3Cc4ccc(O)c5c4[C@@]2(CCN3CC2CC2)[C@H]1O5

>  <SYSTEM>
UniProt:P33534

>  <MEASURED PARAMETER>
Selectivity D/K

>  <RESULT VALUE>
26

$$$$
>  <RECORD SMILES>
Cl.O=C(/C=C/c1ccoc1)N[C@H]1CC[C@@]2(O)[C@H]3Cc4cccc5c4[C@@]2(CCN3CC2CC2)[C@H]1O5

>  <SYSTEM>
UniProt:P33534

>  <MEASURED PARAMETER>
Selectivity D/K

>  <RESULT VALUE>
1.7

$$$$
>  <RECORD SMILES>
Cl.O=C(/C=C/c1ccoc1)N[C@@H]1CC[C@@]2(O)[C@H]3Cc4cccc5c4[C@@]2(CCN3CC2CC2)[C@H]1O5

>  <SYSTEM>
UniProt:P33534

>  <MEASURED PARAMETER>
Selectivity D/K

>  <RESULT VALUE>
345

$$$$
